- Target Entity: SIRT1 (Homo sapiens)
- Assay Summary: Mass spectrometry based SIRT1 deacetylase activation assay (acetylated p53-derived peptide substrate)
- Type: biochemical
- Setup Conditions: 0.5 μM peptide substrate, 120 μM βNAD+, 10 nM SIRT1, 25 minutes at 25° C.
Property Label: EC1.5

O=C(Nc1ccc(CN2CCCC2)cc1)c1cccc2[nH]c(-c3cc(CN4CCCC4)ccc3C(F)(F)F)nc12 [Compound 873]	A (EC1.5<1.0 uM)
Cc1cnc(NC(=O)c2cc(F)cc3nc(-c4cc(F)ccc4C(F)F)[nH]c23)s1 [Compound 836]	A (EC1.5<1.0 uM)

* * *

- Target Entity: SIRT1 (Homo sapiens, UniProt Q96EB6)
- Sequence (Q96EB6 1-747): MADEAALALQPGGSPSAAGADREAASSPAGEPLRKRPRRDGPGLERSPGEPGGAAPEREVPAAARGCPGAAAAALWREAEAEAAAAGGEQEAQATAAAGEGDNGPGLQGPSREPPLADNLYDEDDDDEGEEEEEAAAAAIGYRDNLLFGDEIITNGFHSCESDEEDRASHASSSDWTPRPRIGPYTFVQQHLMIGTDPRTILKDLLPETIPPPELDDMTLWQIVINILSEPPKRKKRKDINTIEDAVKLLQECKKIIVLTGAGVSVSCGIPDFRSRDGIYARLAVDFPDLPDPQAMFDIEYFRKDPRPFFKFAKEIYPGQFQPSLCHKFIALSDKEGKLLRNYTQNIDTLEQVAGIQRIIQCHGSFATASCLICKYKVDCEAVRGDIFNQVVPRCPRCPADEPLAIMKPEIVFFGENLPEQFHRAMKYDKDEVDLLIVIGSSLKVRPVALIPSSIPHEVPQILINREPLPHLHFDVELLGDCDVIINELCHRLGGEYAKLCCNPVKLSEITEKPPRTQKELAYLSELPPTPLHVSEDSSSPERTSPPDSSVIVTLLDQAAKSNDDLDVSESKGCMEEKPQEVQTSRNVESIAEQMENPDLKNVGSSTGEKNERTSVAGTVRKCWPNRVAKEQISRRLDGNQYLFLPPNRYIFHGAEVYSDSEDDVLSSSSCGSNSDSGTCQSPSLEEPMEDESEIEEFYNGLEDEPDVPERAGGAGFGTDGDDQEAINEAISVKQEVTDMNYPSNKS
- Assay Summary: Mass spectrometry based SIRT1 deacetylase activation assay (acetylated p53-derived peptide substrate)
- Assay type: biochemical
- Setup Conditions: 0.5 μM peptide substrate, 120 μM βNAD+, 10 nM SIRT1, 25 minutes at 25° C.
Property Label: EC1.5

Cc1cnc(NC(=O)c2cncc3[nH]c(-c4ccc(N5CCCC5)cc4C(F)F)nc23)s1 [Compound 800]	A (EC1.5<1.0 uM)
C[C@@H]1CN(c2ccc(-c3nc4c(C(=O)Nc5cccnc5)cccc4[nH]3)c(C(F)(F)F)c2)C[C@H](C)O1 [Compound 604]	A (EC1.5<1.0 uM)
O=C(Nc1nccs1)c1cc(F)cc2nc(-c3cc(F)ccc3C(F)F)[nH]c12 [Compound 835]	A (EC1.5<1.0 uM)

* * *

- Target Entity: SIRT1 (Homo sapiens)
- Assay Summary: Mass spectrometry based SIRT1 deacetylase activation assay (acetylated p53-derived peptide substrate)
- Type: biochemical
Property Label: EC1.5

Examples with answers:
O=C(Nc1ccccn1)c1cccc2[nH]c(-c3cccc(C(F)(F)F)c3)nc12	B (EC1.5 1-25 uM)
O=C(Nc1nccs1)c1cccc2[nH]c(-c3ccc(F)cc3C(F)(F)F)nc12	A (EC1.5<1.0 uM)
O=C(Nc1nccs1)c1cccc2[nH]c(-c3ccccc3OCC(O)CO)nc12 (centres unmarked)	B (EC1.5 1-25 uM)
O=C(Nc1cccc2[nH]c(-c3cccc(C(F)(F)F)c3)nc12)c1cnccn1	B (EC1.5 1-25 uM)

Requested read-out: EC1.5. Entry: O=C(Nc1cccc2[nH]c(-c3cc(F)ccc3C(F)(F)F)nc12)c1cccnc1
B (EC1.5 1-25 uM)

Can you handle O=C(Nc1nccs1)c1cccc2[nH]c(-c3ccccc3N3CCOCC3)nc12 next?
B (EC1.5 1-25 uM)

And then O=C(Nc1ccccn1)c1cccc2[nH]c(-c3ccc(Cl)cc3C(F)(F)F)nc12 , what is it?
A (EC1.5<1.0 uM)

CN1CCOc2cc(-c3nc4c(C(=O)Nc5cccnc5)cccc4[nH]3)cnc21 , same question.
A (EC1.5<1.0 uM)

What about O=C(Nc1cccc2[nH]c(-c3cc(F)ccc3C(F)(F)F)nc12)c1cnccn1 ?
B (EC1.5 1-25 uM)

Try this compound next: O=C(Nc1cc[nH]n1)c1cccc2[nH]c(-c3cccc(C(F)(F)F)c3)nc12
B (EC1.5 1-25 uM)

Then O=C(Nc1nccs1)c1cccc2[nH]c(-c3ccco3)nc12 ?
B (EC1.5 1-25 uM)
